biological target: Amine oxidase [flavin-containing] A (Homo sapiens); assay: Inhibition of recombinant human MAO- A using p-tyramine as substrate at 100 uM preincubated with enzyme for 15 mins followed incubation with substrate for 20 mins by Amplex red reagent based fluorescence based analysis relative to control; settings: time 35 min
Sequence (P21397 whole entry): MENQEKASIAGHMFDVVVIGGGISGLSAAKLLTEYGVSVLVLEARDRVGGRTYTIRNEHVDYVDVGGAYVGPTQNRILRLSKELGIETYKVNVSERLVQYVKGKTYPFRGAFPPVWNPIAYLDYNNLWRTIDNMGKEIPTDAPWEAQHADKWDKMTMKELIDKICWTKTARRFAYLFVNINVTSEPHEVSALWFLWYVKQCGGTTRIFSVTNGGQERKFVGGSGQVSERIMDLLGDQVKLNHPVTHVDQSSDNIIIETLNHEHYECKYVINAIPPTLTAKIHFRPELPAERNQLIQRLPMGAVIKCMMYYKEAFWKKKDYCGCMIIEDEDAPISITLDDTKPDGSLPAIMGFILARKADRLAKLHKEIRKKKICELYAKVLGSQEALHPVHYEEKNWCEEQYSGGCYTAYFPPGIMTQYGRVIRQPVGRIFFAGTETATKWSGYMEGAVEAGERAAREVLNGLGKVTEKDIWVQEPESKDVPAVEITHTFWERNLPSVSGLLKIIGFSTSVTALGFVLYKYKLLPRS

{"columns": ["SMILES_REPRESENTATION", "STUDY_SYSTEM", "inhibition at 100 µM"],
 "data": [
  ["O=C(NC1CCN(Cc2ccccc2)CC1)c1coc2ccccc2c1=O", "Amine oxidase [flavin-containing] A (Homo sapiens)", "63.8%"],
  ["O=C(NC1CCN(Cc2ccccc2)CC1)c1coc2cc(Br)ccc2c1=O", "Amine oxidase [flavin-containing] A (Homo sapiens)", "31.6%"],
  ["COc1ccc2c(=O)c(C(=O)NC3CCN(Cc4ccccc4)CC3)coc2c1", "Amine oxidase [flavin-containing] A (Homo sapiens)", "37.4%"],
  ["O=C(NCCC1CCN(Cc2ccccc2)CC1)c1coc2ccc(Br)cc2c1=O", "Amine oxidase [flavin-containing] A (Homo sapiens)", "48.2%"],
  ["Cc1ccc2occ(C(=O)NCCC3CCN(Cc4ccccc4)CC3)c(=O)c2c1", "Amine oxidase [flavin-containing] A (Homo sapiens)", "30.6%"],
  ["O=C(NC1CCN(Cc2ccccc2)CC1)c1cc(=O)c2ccccc2o1", "Amine oxidase [flavin-containing] A (Homo sapiens)", "29.7%"],
  ["COc1ccc2c(=O)c(C(=O)NCCC3CCN(Cc4ccccc4)CC3)coc2c1", "Amine oxidase [flavin-containing] A (Homo sapiens)", "32.4%"],
  ["O=C(NCCC1CCN(Cc2ccccc2)CC1)c1coc2cc(Br)ccc2c1=O", "Amine oxidase [flavin-containing] A (Homo sapiens)", "30.3%"],
  ["Cc1ccc2occ(C(=O)NC3CCN(Cc4ccccc4)CC3)c(=O)c2c1", "Amine oxidase [flavin-containing] A (Homo sapiens)", "48.1%"],
  ["O=C(NCCC1CCN(Cc2ccccc2)CC1)c1coc2ccccc2c1=O", "Amine oxidase [flavin-containing] A (Homo sapiens)", "68.6%"],
  ["O=C(NC1CCN(Cc2ccccc2)CC1)c1coc2ccc(Br)cc2c1=O", "Amine oxidase [flavin-containing] A (Homo sapiens)", "35.5%"],
  ["O=C(NCCC1CCN(Cc2ccccc2)CC1)c1cc(=O)c2ccccc2o1", "Amine oxidase [flavin-containing] A (Homo sapiens)", "29.5%"],
  ["COc1ccc2occ(C(=O)NCCC3CCN(Cc4ccccc4)CC3)c(=O)c2c1", "Amine oxidase [flavin-containing] A (Homo sapiens)", "72.4%"],
  ["COc1ccc2occ(C(=O)NC3CCN(Cc4ccccc4)CC3)c(=O)c2c1", "Amine oxidase [flavin-containing] A (Homo sapiens)", "7.5%"]
]}

---

Below are compounds with their IC50 as measured on Acetylcholinesterase (Electrophorus electricus, UniProt O42275).
Sequence (O42275 whole entry): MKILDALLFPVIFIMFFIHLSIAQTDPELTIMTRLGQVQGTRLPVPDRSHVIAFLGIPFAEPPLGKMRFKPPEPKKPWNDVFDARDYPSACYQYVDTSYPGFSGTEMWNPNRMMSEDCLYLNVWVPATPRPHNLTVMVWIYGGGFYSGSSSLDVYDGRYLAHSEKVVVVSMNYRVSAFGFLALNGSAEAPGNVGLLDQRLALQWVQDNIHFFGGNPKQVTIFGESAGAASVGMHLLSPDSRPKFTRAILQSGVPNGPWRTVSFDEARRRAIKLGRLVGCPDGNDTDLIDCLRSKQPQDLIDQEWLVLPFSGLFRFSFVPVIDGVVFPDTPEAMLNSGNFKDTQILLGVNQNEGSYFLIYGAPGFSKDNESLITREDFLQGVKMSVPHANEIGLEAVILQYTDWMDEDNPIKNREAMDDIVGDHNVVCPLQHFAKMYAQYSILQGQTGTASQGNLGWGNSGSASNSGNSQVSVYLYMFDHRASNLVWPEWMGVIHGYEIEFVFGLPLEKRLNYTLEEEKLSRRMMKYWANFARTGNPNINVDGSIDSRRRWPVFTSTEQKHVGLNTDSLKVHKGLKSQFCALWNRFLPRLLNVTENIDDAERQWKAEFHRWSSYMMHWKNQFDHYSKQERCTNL
READOUT_NAME: IC50 (nM)

{"columns": ["SMILES_REPRESENTATION", "READOUT_NAME", "RESULT_UNIT", "MEASUREMENT"],
 "data": [
  ["COc1ccc2c(=O)c(C(=O)NC3CCN(Cc4ccccc4)CC3)coc2c1", "IC50", "nM", 1580],
  ["COc1ccc2occ(C(=O)NCCC3CCN(Cc4ccccc4)CC3)c(=O)c2c1", "IC50", "nM", 33],
  ["O=C(NCCC1CCN(Cc2ccccc2)CC1)c1coc2cc(Br)ccc2c1=O", "IC50", "nM", 154],
  ["Cc1ccc2occ(C(=O)NCCC3CCN(Cc4ccccc4)CC3)c(=O)c2c1", "IC50", "nM", 110],
  ["O=C(NC1CCN(Cc2ccccc2)CC1)c1coc2ccc(OCc3ccccc3)cc2c1=O", "IC50", "nM", 1850],
  ["O=C(NC1CCN(Cc2ccccc2)CC1)c1coc2cc(Br)ccc2c1=O", "IC50", "nM", 9230]
]}

Values compiled from ChEMBL document CHEMBL4699390.
